Biological target: human recombinant A3 adenosine receptor (Homo sapiens (Human))
Sequence (P0DMS8 whole entry): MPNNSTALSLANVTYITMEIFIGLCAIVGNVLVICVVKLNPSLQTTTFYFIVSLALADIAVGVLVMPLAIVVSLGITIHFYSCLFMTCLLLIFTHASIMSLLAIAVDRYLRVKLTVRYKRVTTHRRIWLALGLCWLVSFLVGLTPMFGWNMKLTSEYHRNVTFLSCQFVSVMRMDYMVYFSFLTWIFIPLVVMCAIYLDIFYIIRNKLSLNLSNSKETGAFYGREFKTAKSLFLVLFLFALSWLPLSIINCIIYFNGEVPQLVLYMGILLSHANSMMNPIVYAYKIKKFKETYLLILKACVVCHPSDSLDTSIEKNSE
Experiment: Adenosine receptor binding, displacement of specific [3H]NECA binding
Conditions: [3H]NECA displacement, CHO cells stably transfected with human recombinant A3 adenosine receptor
pKi: −log10 of the molar value.
Endpoint label: pKi

Solved entries (count: 3):
[
  {
    "Query smiles": "Cc1ccccc1CO[C@@H]1CCC[C@H]1Nc1ncnc2c1ncn2[C@@H]1O[C@H](CO)[C@@H](O)[C@H]1O",
    "pKi": 5.29
  },
  {
    "Query smiles": "OC[C@H]1O[C@@H](n2cnc3c(N[C@H]4CCC[C@@H]4OCc4cccc(I)c4)ncnc32)[C@H](O)[C@@H]1O",
    "pKi": 5.89
  },
  {
    "Query smiles": "OC[C@H]1O[C@@H](n2cnc3c(N[C@H]4CCC[C@@H]4OCc4cccc(F)c4)ncnc32)[C@H](O)[C@@H]1O",
    "pKi": 5.79
  }
]

P = Cc1cccc(CO[C@H]2CCC[C@@H]2Nc2ncnc3c2ncn3[C@@H]2O[C@H](CO)[C@@H](O)[C@H]2O)c1
Q = OC[C@H]1O[C@@H](n2cnc3c(N[C@@H]4CCC[C@H]4OCc4ccc(F)cc4)ncnc32)[C@H](O)[C@@H]1O
Query: Which shows the larger pKi value: P or Q ? Kindly give the label for the entry you pick.
Response: P
(P: 5.87, Q: 5.43)

====

Biological target: human recombinant A3 adenosine receptor (Homo sapiens (Human))
Experiment: Adenosine receptor binding, displacement of specific [3H]NECA binding
Details: [3H]NECA displacement, CHO cells stably transfected with human recombinant A3 adenosine receptor
Endpoint label: Ki (nM)

Solved entries (count: 3):
[
  {
    "Compound": "OC[C@H]1O[C@@H](n2cnc3c(N[C@@H]4CCC[C@H]4OCc4cccc(I)c4)ncnc32)[C@H](O)[C@@H]1O",
    "Measured": 551
  },
  {
    "Compound": "Cc1cccc(CO[C@@H]2CCC[C@H]2Nc2ncnc3c2ncn3[C@@H]2O[C@H](CO)[C@@H](O)[C@H]2O)c1",
    "Measured": 2620
  },
  {
    "Compound": "OC[C@H]1OC(n2cnc3c(NC4CCC[C@@H]4OCc4ccc(F)cc4)ncnc32)[C@H](O)[C@@H]1O (stereo partly drawn)",
    "Measured": 1870
  }
]

P = Cc1ccc(CO[C@H]2CCC[C@@H]2Nc2ncnc3c2ncn3[C@@H]2O[C@H](CO)[C@@H](O)[C@H]2O)cc1
Q = Cc1ccccc1CO[C@H]1CCC[C@@H]1Nc1ncnc2c1ncn2[C@@H]1O[C@H](CO)[C@@H](O)[C@H]1O
R = OC[C@H]1O[C@@H](n2cnc3c(N[C@@H]4CCC[C@H]4OCc4cccc(F)c4)ncnc32)[C@H](O)[C@@H]1O
Query: # ascending order, key=Ki Answer by naming the labels in the order asked.
Response: Q, P, R

====

Target: human recombinant A1 adenosine receptor (Homo sapiens (Human))
Sequence (P30542 whole entry): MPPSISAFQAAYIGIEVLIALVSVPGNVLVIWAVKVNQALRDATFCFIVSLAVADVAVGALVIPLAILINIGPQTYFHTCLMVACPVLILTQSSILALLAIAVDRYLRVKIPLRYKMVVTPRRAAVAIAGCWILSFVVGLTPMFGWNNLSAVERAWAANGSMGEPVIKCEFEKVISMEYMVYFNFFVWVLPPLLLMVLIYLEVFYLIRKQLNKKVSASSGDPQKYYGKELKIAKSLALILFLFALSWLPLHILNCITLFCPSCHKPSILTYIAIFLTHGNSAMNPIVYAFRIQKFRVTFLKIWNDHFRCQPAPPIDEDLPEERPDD
Experiment: Adenosine receptor binding, displacement of specific [3H]CCPA binding
Settings: [3H]CCPA displacement, CHO cells stably transfected with human recombinant A1 adenosine receptor
pKi: −log10 of the molar value.
Endpoint label: pKi

[
  {
    "Query smiles": "Cc1ccccc1CO[C@H]1CCC[C@@H]1Nc1ncnc2c1ncn2[C@@H]1O[C@H](CO)[C@@H](O)[C@H]1O",
    "Endpoint label": "pKi",
    "Measured": 7.90
  },
  {
    "Query smiles": "Cc1cccc(CO[C@H]2CCC[C@@H]2Nc2ncnc3c2ncn3[C@@H]2O[C@H](CO)[C@@H](O)[C@H]2O)c1",
    "Endpoint label": "pKi",
    "Measured": 8.55
  },
  {
    "Query smiles": "Cc1ccccc1CO[C@@H]1CCC[C@H]1Nc1ncnc2c1ncn2[C@@H]1O[C@H](CO)[C@@H](O)[C@H]1O",
    "Endpoint label": "pKi",
    "Measured": 8.64
  }
]

I = Cc1cccc(CO[C@@H]2CCC[C@H]2Nc2ncnc3c2ncn3[C@@H]2O[C@H](CO)[C@@H](O)[C@H]2O)c1
II = Cc1ccc(CO[C@H]2CCC[C@@H]2Nc2ncnc3c2ncn3[C@@H]2O[C@H](CO)[C@@H](O)[C@H]2O)cc1
Query: Which shows the larger pKi value: I or II ? Kindly give the label for the entry you pick.
Response: I
(I: 8.58, II: 7.54)
